target: HiBit-BRG1 fusion protein (Homo sapiens, UniProt P51532); construct: expressed in transfected cells; assay: HiBiT-BRG1 cell-based degradation assay (Nano-Glo HiBiT lytic detection, 24 h); conditions: HeLa cell line expressing HiBit-BRG1 and LgBit, read-out: BRG1 HiBit Degradation Maximum (%)
Sequence (P51532 whole entry, the tested form may be a part): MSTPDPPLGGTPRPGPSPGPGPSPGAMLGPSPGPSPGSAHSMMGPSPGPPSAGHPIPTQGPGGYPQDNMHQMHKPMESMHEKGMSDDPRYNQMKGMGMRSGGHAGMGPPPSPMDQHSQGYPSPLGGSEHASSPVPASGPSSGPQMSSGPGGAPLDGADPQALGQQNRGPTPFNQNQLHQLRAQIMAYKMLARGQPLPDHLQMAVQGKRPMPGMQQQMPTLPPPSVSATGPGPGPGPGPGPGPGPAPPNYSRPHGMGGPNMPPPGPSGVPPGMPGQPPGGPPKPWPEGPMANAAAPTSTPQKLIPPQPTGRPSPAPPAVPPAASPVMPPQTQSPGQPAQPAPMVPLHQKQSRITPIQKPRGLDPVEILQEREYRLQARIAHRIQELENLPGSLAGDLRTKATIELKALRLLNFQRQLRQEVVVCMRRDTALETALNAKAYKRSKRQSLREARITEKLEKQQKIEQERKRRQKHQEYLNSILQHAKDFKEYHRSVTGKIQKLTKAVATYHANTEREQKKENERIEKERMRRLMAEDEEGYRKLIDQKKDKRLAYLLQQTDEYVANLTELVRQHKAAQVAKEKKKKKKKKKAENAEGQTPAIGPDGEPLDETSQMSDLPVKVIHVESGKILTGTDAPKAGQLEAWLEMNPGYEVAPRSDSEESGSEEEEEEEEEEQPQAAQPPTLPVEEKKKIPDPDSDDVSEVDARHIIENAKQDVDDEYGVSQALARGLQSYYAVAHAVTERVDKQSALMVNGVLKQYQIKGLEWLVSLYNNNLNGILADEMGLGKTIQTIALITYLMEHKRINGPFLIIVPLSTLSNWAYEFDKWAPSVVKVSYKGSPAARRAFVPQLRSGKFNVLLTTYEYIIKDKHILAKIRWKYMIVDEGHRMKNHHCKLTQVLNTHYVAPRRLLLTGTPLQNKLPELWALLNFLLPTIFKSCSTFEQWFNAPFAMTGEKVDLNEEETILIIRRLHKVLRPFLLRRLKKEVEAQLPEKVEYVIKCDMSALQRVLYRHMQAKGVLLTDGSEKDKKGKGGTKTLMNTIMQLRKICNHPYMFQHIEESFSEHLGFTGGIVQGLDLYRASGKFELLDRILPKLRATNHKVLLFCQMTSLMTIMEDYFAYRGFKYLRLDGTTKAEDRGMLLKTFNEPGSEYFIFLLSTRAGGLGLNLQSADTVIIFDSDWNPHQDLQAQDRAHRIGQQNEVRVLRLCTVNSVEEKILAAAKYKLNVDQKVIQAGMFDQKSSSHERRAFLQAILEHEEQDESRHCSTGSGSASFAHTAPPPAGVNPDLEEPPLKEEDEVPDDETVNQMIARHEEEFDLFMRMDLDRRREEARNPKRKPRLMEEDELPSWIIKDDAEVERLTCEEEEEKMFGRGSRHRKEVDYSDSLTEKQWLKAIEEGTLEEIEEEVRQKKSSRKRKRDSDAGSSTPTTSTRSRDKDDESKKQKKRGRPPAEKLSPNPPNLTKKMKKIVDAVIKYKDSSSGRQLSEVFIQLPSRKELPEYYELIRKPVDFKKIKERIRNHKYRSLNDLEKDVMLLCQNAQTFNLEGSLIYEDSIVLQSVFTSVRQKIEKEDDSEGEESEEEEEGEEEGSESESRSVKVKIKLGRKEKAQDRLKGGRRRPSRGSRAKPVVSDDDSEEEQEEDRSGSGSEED
Overview of recorded Dmax for various compounds
quantity-name: Dmax

compound="Cc1ncsc1-c1ccc([C@H](C)NC(=O)[C@@H]2C[C@@H](O)CN2C(=O)[C@@H](c2cc(N3CCC4(CCC(c5cc6nnc(-c7ccccc7O)cc6n5C5CC5)CC4)CC3)no2)C(C)C)cc1 [Compound 85]" result="> 75%"
compound="Cc1ncsc1-c1ccc([C@H](C)NC(=O)[C@@H]2C[C@@H](O)CN2C(=O)[C@@H](c2cc(N3CCC4(CC3)CC(c3cc5nnc(-c6ccccc6O)cc5n3C)C4)no2)C(C)C)cc1 [Compound 113]" result="> 50%"
compound="Cc1ncsc1-c1ccc([C@H](C)NC(=O)[C@@H]2C[C@@H](O)CN2C(=O)[C@H](c2cc(-c3cnc(N4CC[C@H](c5cc6nnc(-c7ccccc7O)cc6n5C5CC5)C4)nc3)no2)C(C)C)cc1 [Compound 35]" result="< 50%"
compound="Cc1ncsc1-c1ccc([C@H](C)NC(=O)[C@@H]2C[C@@H](O)CN2C(=O)[C@@H](c2cc(-c3cnc(N4CC5(CC(c6cc7nnc(-c8ccccc8O)cc7n6C67CC(C6)C7)C5)C4)nc3)no2)C(C)C)cc1 [Compound 64]" result="< 50%"
compound="CC(C)C(C(=O)N1C[C@H](O)C[C@H]1C(=O)NC1CCCC1)c1cc(N2CC3(CC(c4cc5nnc(-c6ccccc6O)cc5n4C4CCC4)C3)C2)no1 (some centres unmarked) [Compound 119]" result="< 50%"

====

Overview of recorded Dmax for various molecules
target: HiBit-BRG1 fusion protein (Homo sapiens, UniProt P51532); construct: expressed in transfected cells; experiment: HiBiT-BRG1 cell-based degradation assay (Nano-Glo HiBiT lytic detection, 24 h); details: HeLa cell line expressing HiBit-BRG1 and LgBit, read-out: BRG1 HiBit Degradation Maximum (%)
quantity-name: Dmax

molecule=Cc1ncsc1-c1ccc([C@H](C)NC(=O)[C@@H]2C[C@@H](O)CN2C(=O)[C@@H](c2cc(N3CCC4(CC3)CC(c3cc5nnc(-c6ccccc6O)cc5n3C3CC3)C4)no2)C(C)C)cc1 quantity_name=Dmax result="< 50%"
molecule="C#Cc1ccc(CNC(=O)[C@@H]2C[C@@H](O)CN2C(=O)C(c2cc(N3CC4(CC(c5cc6nnc(-c7ccccc7O)cc6n5C5CCC5)C4)C3)no2)C(C)C)c(OCCCOC)c1 (stereo partly drawn)" quantity_name=Dmax result="< 50%"
molecule=Cc1ncsc1-c1ccc([C@H](C)NC(=O)[C@@H]2C[C@@H](O)CN2C(=O)[C@@H](c2cc(OCCN3CC(c4cc5nnc(-c6ccccc6O)cc5[nH]4)C3)no2)C(C)C)cc1 quantity_name=Dmax result="> 75%"

====

target: HiBit-BRG1 fusion protein (Homo sapiens, UniProt P51532); construct: expressed in transfected cells; assay: HiBiT-BRG1 cell-based degradation assay (Nano-Glo HiBiT lytic detection, 24 h); settings: HeLa cell line expressing HiBit-BRG1 and LgBit, read-out: BRG1 HiBit Degradation Maximum (%)
quantity-name: Dmax

structure_string=Cc1ncsc1-c1ccc([C@H](C)NC(=O)[C@@H]2C[C@@H](O)CN2C(=O)[C@@H](c2cc(N3CC4(CC(c5cc6nnc(-c7ccccc7O)cc6n5CC5CC5)C4)C3)no2)C(C)C)cc1 result="< 50%"
structure_string=Cc1ncsc1-c1ccc([C@H](C)NC(=O)[C@@H]2C[C@@H](O)CN2C(=O)[C@@H](c2cc(-c3cnc(N4CCC(c5cc6nnc(-c7ccccc7O)cc6n5C)CC4)nc3)no2)C(C)C)cc1 result="> 50%"
structure_string=Cc1ncsc1-c1ccc([C@H](C)NC(=O)[C@@H]2C[C@@H](O)CN2C(=O)[C@H](C(C)C)n2cc(-c3cnc(N4CC[C@@H](c5cc6nnc(-c7ccccc7O)cc6n5C5CC5)C4)nc3)nn2)cc1 result="> 75%"
